Recorded values, source patent US20250171437A1.

assayed_target: human PAH with the R408W mutation (A375 R408W cells) (Homo sapiens, UniProt P00439, R408W)
Construct: expressed in transfected cells
assay_text: Cell Based Phenylalanine Flux Assay
test_parameters: A375 R408W cells; 24 hrs with compound, then 20 μM sepiapterin and 800 μM 13C9,15N-Phenylalanine for 4 hours; 13C-Tyrosine by LC-MS; average where tested multiple times

# compound, AC50
rows = [
    ("O=C(c1oc(N2CCOCC2)nc1C(F)F)N1CCc2[nH]cnc2[C@H]1c1nc2cc(F)ccc2o1", "500 to 1000 nM"),
    ("Cc1ccc2nc([C@H]3c4nc[nH]c4CCN3C(=O)c3nnc(-c4ccn(C)n4)o3)oc2c1", "1000 to 5000 nM"),
    ("O=C(c1oc(-c2ccccn2)nc1C1CC1)N1CCc2[nH]cnc2[C@H]1c1nc2cc(F)ccc2o1", "≤ 500 nM"),
    ("O=C(c1ccnn1C(F)F)N1CCc2[nH]cnc2[C@H]1c1nc2c(F)ccc(F)c2o1", "≤ 500 nM"),
    ("CN(C)c1ccc2c(C(=O)N3CCc4[nH]cnc4[C@@H]3c3nc4cc(F)ccc4o3)cnn2c1", "≥ 5000 nM"),
    ("CC1CN(C(=O)c2ocnc2C(F)F)[C@H](c2nc3cccc(F)c3o2)c2nc[nH]c21 (single isomer, unassigned) [Example 804]", "≤ 500 nM"),
    ("O=C(c1nnc(-c2ccccn2)o1)N1CCc2[nH]cnc2[C@@H]1c1nc2ccc(F)cc2o1", "1000 to 5000 nM"),
    ("CC(C)(O)c1nc(C(F)F)c(C(=O)N2CCc3[nH]cnc3[C@H]2c2nc3cc(Cl)cc(F)c3o2)o1", "≤ 500 nM"),
    ("O=C(c1nnc(-c2cccnc2)o1)N1CCc2[nH]cnc2[C@H]1c1nc2cc(F)ccc2o1", "500 to 1000 nM"),
    ("Cc1ccc2nc([C@H]3c4nc[nH]c4CCN3C(=O)c3nnc(-c4cnn(C)c4)o3)oc2c1", "≥ 5000 nM"),
    ("O=C(c1ccnn1C(F)F)N1CCc2[nH]cnc2[C@H]1c1nc2c(F)cccc2o1", "500 to 1000 nM"),
    ("O=C(c1oc(C2(O)CCC2)nc1C(F)F)N1CCc2[nH]cnc2[C@H]1c1nc2cc(F)ccc2o1", "≤ 500 nM"),
    ("Cc1ccc2oc([C@@H]3c4nc[nH]c4CCN3C(=O)c3oc(C(C)(C)O)nc3Br)nc2c1", "≤ 500 nM"),
    ("CC(C)(C)c1ncc(C(=O)N2CCc3[nH]cnc3[C@@H]2c2nc3cc(F)ccc3o2)s1", "1000 to 5000 nM"),
    ("CC(C)(CO)c1nc(C(F)F)c(C(=O)N2CCc3[nH]cnc3[C@@H]2c2nc3cc(F)ccc3o2)o1", "1000 to 5000 nM"),
    ("Cn1nc(C(F)F)nc1C(=O)N1CCc2[nH]cnc2[C@@H]1c1nc2ccccc2o1", "1000 to 5000 nM"),
    ("Cc1ccc2nc([C@@H]3c4nc[nH]c4CCN3C(=O)c3nnc(-c4cnn(C)c4)o3)oc2c1", "1000 to 5000 nM"),
    ("Cc1cc(F)ccc1-c1nnc(C(=O)N2CCc3[nH]cnc3[C@@H]2c2nc3cc(F)ccc3o2)o1", "1000 to 5000 nM"),
    ("Cn1nc(Cl)nc1C(=O)N1CCc2[nH]cnc2[C@H]1c1nc2c(F)cccc2o1", "500 to 1000 nM"),
    ("O=C(c1ocnc1C(F)F)N1CCc2[nH]cnc2[C@@H]1c1nc2c(F)cc(F)cc2o1", "1000 to 5000 nM"),
    ("O=C(CC1CC(F)C1)N1CCc2[nH]cnc2[C@@H]1c1nc2cc(F)ccc2o1 (stereo partly shown)", "1000 to 5000 nM"),
    ("O=C(c1ocnc1C(F)F)N1CCc2[nH]cnc2[C@@H]1c1nc2cccc(OC(F)(F)F)c2o1", "≤ 500 nM"),
    ("O=C(c1nnc(C2CC2)o1)N1CCc2[nH]cnc2[C@H]1c1nc2cc(F)ccc2o1", "500 to 1000 nM"),
    ("CC(C)(F)c1ncc(C(=O)N2CCc3[nH]cnc3[C@H]2c2nc3cc(F)ccc3o2)o1", "≤ 500 nM"),
    ("O=C(CC1(O)CCC1)N1CCc2[nH]cnc2[C@@H]1c1nc2cc(F)ccc2o1", "1000 to 5000 nM"),
    ("O=C(c1nnc(-c2cnn(C(F)F)c2)o1)N1CCc2[nH]cnc2[C@H]1c1nc2c(F)ccc(F)c2o1", "≤ 500 nM"),
    ("COc1cccc2oc([C@H]3c4nc[nH]c4CCN3C(=O)c3ocnc3C(F)F)nc12", "500 to 1000 nM"),
    ("C[C@@H](O)c1nc(C(F)F)c(C(=O)N2CCc3[nH]cnc3[C@H]2c2nc3cccc(F)c3o2)o1", "≤ 500 nM"),
    ("O=C(c1oc(-c2ccccn2)nc1C(F)F)N1CCc2[nH]cnc2[C@@H]1c1nc2cccc(F)c2o1", "≤ 500 nM"),
    ("COc1ccc2oc([C@H]3c4nc[nH]c4CCN3C(=O)c3nc(C(F)F)nn3C)nc2c1", "1000 to 5000 nM"),
    ("O=C(c1cnn2cc(N3CCC(F)CC3)ccc12)N1CCc2[nH]cnc2[C@H]1c1nc2cccc(F)c2o1", "≤ 500 nM"),
]

---

assayed_target: human PAH with the R408W mutation (A375 R408W cells) (Homo sapiens, UniProt P00439, R408W)
Construct: expressed in transfected cells
Sequence (P00439 1-452 R408W): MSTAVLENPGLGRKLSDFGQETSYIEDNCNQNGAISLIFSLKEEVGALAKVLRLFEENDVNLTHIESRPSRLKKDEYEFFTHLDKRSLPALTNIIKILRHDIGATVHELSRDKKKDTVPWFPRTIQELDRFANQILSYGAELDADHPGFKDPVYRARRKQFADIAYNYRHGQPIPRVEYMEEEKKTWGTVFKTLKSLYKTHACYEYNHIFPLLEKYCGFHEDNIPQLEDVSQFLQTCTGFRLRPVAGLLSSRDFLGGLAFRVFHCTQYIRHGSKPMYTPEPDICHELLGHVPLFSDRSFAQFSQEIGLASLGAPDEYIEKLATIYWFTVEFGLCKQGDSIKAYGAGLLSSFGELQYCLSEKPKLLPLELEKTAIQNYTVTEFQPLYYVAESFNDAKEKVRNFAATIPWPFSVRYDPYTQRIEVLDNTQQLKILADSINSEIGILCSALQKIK
assay_text: Cell Based Phenylalanine Flux Assay
test_parameters: A375 R408W cells; 24 hrs with compound, then 20 μM sepiapterin and 800 μM 13C9,15N-Phenylalanine for 4 hours; 13C-Tyrosine by LC-MS; average where tested multiple times

# compound, AC50
measured = [
    ("O=C(c1oc(N2CCC(F)CC2)nc1C(F)F)N1CCc2[nH]cnc2[C@H]1c1nc2cc(F)ccc2o1 [Example 401]", "≤ 0.5 µM"),
    ("C[C@H](O)c1nc(C(F)F)c(C(=O)N2CCc3[nH]cnc3[C@@H]2c2nc3ccc(F)cc3o2)o1 [Example 232]", "1 to 5 µM"),
    ("C[C@@H](O)c1nc(C(F)F)c(C(=O)N2CCc3[nH]cnc3[C@@H]2c2nc3cccc(F)c3o2)o1 [Example 246]", "≤ 0.5 µM"),
    ("Cn1nc(C(F)F)nc1C(=O)N1CCc2[nH]cnc2[C@@H]1c1nc2c(F)ccc(F)c2o1 [Example 485]", "1 to 5 µM"),
    ("CC(C)(O)c1nc(C(F)F)c(C(=O)N2CCc3[nH]cnc3[C@@H]2c2nc3cc(C(F)(F)F)ccc3o2)o1 [Example 328]", "≤ 0.5 µM"),
    ("O=C(c1ccnn1C(F)F)N1Cc2[nH]cnc2[C@H]1c1nc2ccccc2o1 [Example 951]", "1 to 5 µM"),
    ("CC(C)(O)c1nc(Br)c(C(=O)N2CCc3[nH]cnc3[C@@H]2c2nc3ccc(F)cc3o2)o1 [Example 250]", "≥ 5 µM"),
    ("COc1cccc2oc([C@@H]3c4nc[nH]c4CCN3C(=O)c3nc(C(F)F)nn3C)nc12 [Example 601]", "0.5 to 1 µM"),
    ("CC(O)c1nc(Br)c(C(=O)N2CCc3[nH]cnc3[C@@H]2c2nc3cc(F)ccc3o2)o1 (single isomer, unassigned) [Example 223]", "1 to 5 µM"),
    ("Cn1cc(-c2nnc(C(=O)N3CCc4[nH]cnc4[C@H]3c3nc4cccc(C(F)(F)F)c4o3)o2)cn1 [Example 830]", "0.5 to 1 µM"),
    ("O=C(c1cnn2cc(N3CCC4(CC3)CC4)ccc12)N1CCc2[nH]cnc2[C@H]1c1nc2c(F)cccc2o1 [Example 505]", "0.5 to 1 µM"),
    ("CN1CCN(c2ccc3c(C(=O)N4CCc5[nH]cnc5[C@@H]4c4nc5cc(F)ccc5o4)cnn3c2)CC1(C)C [Example 140]", "≥ 5 µM"),
    ("Cn1nc(C(F)(F)F)nc1C(=O)N1CCc2[nH]cnc2[C@@H]1c1nc2cccc(F)c2o1 [Example 280]", "1 to 5 µM"),
    ("O=C(c1ccnn1C(F)(F)F)N1CCc2[nH]cnc2[C@H]1c1nc2c(F)cccc2o1 [Example 293]", "≤ 0.5 µM"),
    ("Cc1ccc2oc([C@H]3c4nc[nH]c4CCN3C(=O)c3oc(-c4cnn(C)c4)nc3C(F)F)nc2c1 [Example 772]", "0.5 to 1 µM"),
    ("O=C(c1ccnn1C(F)F)N1CCc2[nH]cnc2[C@@H]1c1nc2ccccc2o1 [Example 564]", "1 to 5 µM"),
    ("O=C(c1ocnc1C(F)F)N1CCc2[nH]cnc2[C@H]1c1nc2cccc(F)c2o1 [Example 173]", "≤ 0.5 µM"),
    ("CC(C)(O)c1nc(C(F)(F)F)c(C(=O)N2CCc3[nH]cnc3[C@H]2c2nc3c(F)cccc3o2)o1 [Example 257]", "≤ 0.5 µM"),
    ("Cc1cccc2oc([C@H]3c4nc[nH]c4CCN3C(=O)c3ccnn3C(F)F)nc12 [Example 450]", "1 to 5 µM"),
    ("CN(C)CCc1ccc2c(C(=O)N3CCc4[nH]cnc4[C@@H]3c3nc4cc(F)ccc4o3)cnn2c1 [Example 48]", "≥ 5 µM"),
    ("Cc1ccc2oc([C@H]3c4nc[nH]c4CCN3C(=O)c3nnc(-c4cnn(C(F)F)c4)o3)nc2c1 [Example 674]", "1 to 5 µM"),
    ("COc1ccc2oc([C@H]3c4nc[nH]c4CCN3C(=O)c3nnc(-c4cnn(C)c4)o3)nc2c1 [Example 554]", "1 to 5 µM"),
    ("CNC(C)(C)c1nc(C(F)F)c(C(=O)N2CCc3[nH]cnc3[C@H]2c2nc3cc(F)ccc3o2)o1 [Example 221]", "0.5 to 1 µM"),
    ("Cc1nc([C@@H](C)O)oc1C(=O)N1CCc2[nH]cnc2[C@@H]1c1nc2c(F)cccc2o1 [Example 209]", "≥ 5 µM"),
    ("Cc1ccc2oc([C@@H]3c4nc[nH]c4CCN3C(=O)c3nnc(-c4cnn(C)c4)o3)nc2c1 [Example 111]", "0.5 to 1 µM"),
    ("COc1ccc2oc([C@@H]3c4nc[nH]c4CCN3C(=O)c3nc(C(F)F)nn3C)nc2c1 [Example 549]", "0.5 to 1 µM"),
    ("Cn1cc(-c2nnc(C(=O)N3CCc4[nH]cnc4[C@@H]3c3nc4ccccc4o3)o2)cn1 [Example 582]", "1 to 5 µM"),
    ("O=C(c1nnc(-c2ccccn2)o1)N1Cc2[nH]cnc2[C@@H]1c1nc2ccccc2o1 [Example 938]", "1 to 5 µM"),
    ("O=C(c1nnc(-c2cnccn2)o1)N1CCc2[nH]cnc2[C@@H]1c1nc2cc(F)ccc2o1 [Example 627]", "1 to 5 µM"),
    ("O=C(c1cnn2cc(N3CCC(O)CC3)ccc12)N1CCc2[nH]cnc2[C@@H]1c1nc2cccc(F)c2o1 [Example 372]", "1 to 5 µM"),
]
